This collection of values is drawn from PubChem BioAssay (NCI).

- Tested on: UO-31 renal
- experiment: NCI tumour cell line growth inhibition, 48 h
Catalogue of TGI values

// TGI value for CCN(C(=O)c1cc(F)ccc1Oc1cncnc1N1CC2(CCN(CC3CCC(NS(=O)(=O)CC)CC3)CC2)C1)C(C)C (stereo unspecified) : > 100 µM

// TGI value for CCC1CCc2nc3sc(C(=O)Nc4cccc(F)c4)c(N)c3cc2C1 (stereo unspecified) : > 100 µM

// TGI value for CCSc1cc(=O)n(C)c(=O)n1C : > 100 µM

// TGI value for COc1ccc(Nc2c3ccccc3nc3ccccc23)cc1 : 5.27 µM

// TGI value for O=C(Cc1nc2ccccc2s1)Nc1cccc(C(F)(F)F)c1 : 27.6 µM

API: the following record is the query input.
// TGI value for O=S(=O)(O)ON=C1c2ccccc2-c2ccccc21 : > 100 µM

====

- System: UO-31 renal
- experiment: NCI tumour cell line growth inhibition, 48 h
readout-kind: GI50

Known GI50 results, listed for orientation:
// GI50 value for CCN(C(=O)c1cc(F)ccc1Oc1cncnc1N1CC2(CCN(CC3CCC(NS(=O)(=O)CC)CC3)CC2)C1)C(C)C (configuration not stated) : > 100000 nM

// GI50 value for CN(C)c1ccc(Nc2cc(-c3cccc(OC(F)(F)F)c3)nc3ccc(N4CCCC4)cc23)cc1 : 1770 nM

// GI50 value for COc1ccc(Cn2cc3c(c2-c2ccc(OC)cc2)CCc2cnoc2-3)cc1 : 797 nM

// GI50 value for Nc1nc(-c2ccc(F)cc2)c(-c2ccc3ncccc3n2)s1 : 4680 nM

// GI50 value for CC[C@@H](C(=O)[C@@H](C)[C@@H](O)[C@H](C)[C@@H]1O[C@@H]([C@@H](CC)C(=O)N(CC)CC)CC[C@@H]1C)C1O[C@]2(C=CC(=O)[C@]3(CC[C@@](C)([C@H]4CC[C@](O)(CC)[C@H](C)O4)O3)O2)[C@H](C)C[C@@H]1C (some centres not stated) : 2420 nM

More entries:
// GI50 value for Cc1cccc2c(=O)c3c(sc12)c(NCCNCCO)nc1ccccc13 : 1090 nM

// GI50 value for CCC1CCc2nc3sc(C(=O)Nc4cccc(F)c4)c(N)c3cc2C1 (configuration not stated) : > 100000 nM

====

Catalogue of TGI values
- Test system: OVCAR-4 ovarian
- experiment: NCI tumour cell line growth inhibition, 48 h

// TGI value for C#CC1(O)C(COP(=O)(O)OCC2OC(n3ccc(NCCCCCCCCCCCCCCCCCC)nc3=O)C(O)C2O)OC(n2ccc(N)nc2=O)C1O (centres undefined) : 34.8 µM

// TGI value for O=CC[C@H]1CCc2ccccc2C12CCC(=O)CC2 : > 100 µM

// TGI value for CCN(C(=O)c1cc(F)ccc1Oc1cncnc1N1CC2(CCN(CC3CCC(NS(=O)(=O)CC)CC3)CC2)C1)C(C)C (centres undefined) : > 100 µM

// TGI value for COc1ccc2c(c1)C(=O)c1c-2c(Nc2ccc(Cl)cc2)nc2ccccc12 : 42.9 µM

// TGI value for CCc1cccc(C(C)C)c1N1C(=O)C(=O)C(c2nc3ccccc3s2)C(=O)C1=O : > 50 µM

// TGI value for CC(=Nc1ccccc1)C1=C(O)C(Cc2ccccc2)NC1=O (centres undefined) : > 100 µM

// TGI value for N=C(N)SCc1ccc(Cl)cc1Cl (tested in a mixture with another compound) : 38.8 µM

// TGI value for COc1ccc(/C(C#N)=C/c2ccc(OC)c(OC)c2)cc1 : > 100 µM

// TGI value for O=CC(O)C(O)C(O)C(O)COP(=O)(O)Cc1ccccc1 (centres undefined) : > 10 µM

====

- System: NCI-H460 lung
- experiment: NCI tumour cell line growth inhibition, 48 h
Catalogue of TGI values

// TGI value for CSCCCNC(=O)c1csc(-c2csc(C(CNC(=O)OC(C)(C)C)CNC(=O)OC(C)(C)C)n2)n1 : > 100 µM

// TGI value for O=C(/C=C/c1cc(O)c(O)cc1O)OCCc1ccccc1 : > 100 µM

// TGI value for COc1cc2c(cc1Nc1nc(Nc3ccsc3C(N)=O)c3cc[nH]c3n1)N(C(=O)CN(C)C)CCC2(C)C : 5.3 µM

// TGI value for CC(C)(C)c1cc2c3c(c1)C(C(F)(F)F)(C(F)(F)F)O[Te]3(C)OC2(C(F)(F)F)C(F)(F)F : > 100 µM

More entries:
// TGI value for CN(C)c1ccc(C(Cc2ccc3ccccc3n2)Cc2ccc3ccccc3n2)cc1 : > 100 µM

// TGI value for O=C1C2C3C=CC(C2C(=O)N1COP(=O)(O)O)C1C2C(=O)N(COP(=O)(O)O)C(=O)C2C31 (configuration not stated) : > 59.5 µM

// TGI value for CC1OC(O[C@H]2C3C=CO[C@@H](OC4OC(CO)C(O)C(O)C4O)C3[C@@]3(COC(=O)/C=C/c4ccc(O)cc4)O[C@@H]23)C(O)C(O)C1O (some centres not stated) : > 100 µM

// TGI value for CCOC(=O)C(C(=S)Nc1ccccc1)c1nn2c(=O)cc(C)nc2s1 (configuration not stated) : 81.1 µM

// TGI value for CC1(Cl)CCC2(CC(Br)=CC3OC32C)CC1Br (configuration not stated) : 71.1 µM

====

Catalogue of GI50 values
- System: K-562 leukemia
- experiment: NCI tumour cell line growth inhibition, 48 h
Non-standard residues stand in square brackets, D forms with d. Residues, ends and D or L forms follow the SMILES beside them. *: point of attachment. hSer = N[CH](CCO)C(=O)O; Boc = CC(C)(C)OC(=O)*

Known GI50 results, listed for orientation:
The recorded GI50 with K-562 leukemia for COc1cc(Nc2ccnc(NCCCNc3ccnc4cc(Cl)ccc34)n2)cc(OC)c1 was 520 nM

The recorded GI50 with K-562 leukemia for CCNC(=O)c1cc2c(-c3cc(C(C)(C)O)ccc3Oc3c(C)cc(F)cc3C)cn(C)c(=O)c2[nH]1 was 1860 nM

The recorded GI50 with K-562 leukemia for COCCC(NC(=O)C(CC(C)C)NC(=O)OC(C)(C)C)C(=O)OC (stereo not drawn) (Boc-Leu-[hSer](Me)-OMe; configuration not given here) was 63.1 µg/mL

The recorded GI50 with K-562 leukemia for Nc1nc(-c2ccc(F)cc2)c(-c2ccc3ncccc3n2)s1 was > 18500 nM

API: the following record is the query input.
The recorded GI50 with K-562 leukemia for COC(=O)C1=C(C)NC(C)=C(C(=O)OC)C1/C=C(Cl)/C=C/c1ccccc1 was 22800 nM

====

- Test system: COLO 205 colon
- experiment: NCI tumour cell line growth inhibition, 48 h; in the data active means GI50 below about 0.43 µM; inactive means the rest
Lab note: assign the record to one of t = active, f = inactive

Observe how each entry below is paired with its result.
Call for entry CN(CC(=O)N(Cc1ccc(C2CCCCC2)cc1)c1ccc(C(=O)O)c(O)c1)S(=O)(=O)c1c(F)c(F)c(F)c(F)c1F :
f

Call for entry CC1(C)[C@@H](O[C@@H]2OC[C@@H](O[C@@H]3O[C@H](CO)[C@@H](O)[C@H](O)[C@H]3O[C@@H]3OC[C@@H](O)[C@H](O)[C@H]3O)[C@H](O)[C@H]2O[C@@H]2O[C@H](CO)[C@@H](O)[C@H](O)[C@H]2O)CC[C@]2(C)[C@H]3CC[C@]45OC[C@@]6(CC[C@](C)(C=O)C[C@H]64)[C@H](O)C[C@@]5(C)[C@]3(C)CC[C@@H]12 :
f

Call for entry COc1ccc(OC)c(/C=C(/C)[N+](=O)[O-])c1 :
f

Next item in the queue.
Call for entry CCN(C(=O)c1cc(F)ccc1Oc1cncnc1N1CC2(CCN(CC3CCC(NS(=O)(=O)CC)CC3)CC2)C1)C(C)C (configuration not stated) :
f

====

- System: SNB-19 CNS
- experiment: NCI tumour cell line growth inhibition, 48 h
readout-kind: GI50

Known GI50 results, listed for orientation:
// GI50 value for CCCCCCCCCCCC1CCCC(C)N1 (stereo unspecified) : 11.4 µM

// GI50 value for N#Cc1c(N)nc(N2CCOCC2)c(C#N)c1-c1cccnc1 : 77.2 µM

// GI50 value for CN(CC(=O)N(Cc1ccc(C2CCCCC2)cc1)c1ccc(C(=O)O)c(O)c1)S(=O)(=O)c1c(F)c(F)c(F)c(F)c1F : 11.3 µM

// GI50 value for CN1CCN(c2ccc3nc(-c4ccc5nc(-c6ccc(OCCC(C)(C)C)cc6)[nH]c5c4)[nH]c3c2)CC1 : 2.15 µM

// GI50 value for N#CSCC1CC(O)(c2ccccc2)CC(c2ccc(F)cc2)O1 (stereo unspecified) : 4.14 µM

More entries:
// GI50 value for Nc1nc(Cl)c(N=Nc2ccc(Cl)cc2)c(NCC2(CO)CC2)n1 : 50 µM
